Let's look at some binders and their measured glycan array binding signal (z-score).
target: Neu5Gc(b2-6)Gal(b1-4)GlcNAc; test: glycan array binding signal (z-score within array); higher = stronger binding; details: glycan notation: IUPAC condensed, linker removed
This is one part of a sample in which the strongest signals are shown more often than they occur.
I only need the number, thanks.

Input line: Give its glycan array binding signal (z-score) value. Item: GALT1 615 (Arabidopsis thaliana), Q8L7F9 (protein) DPMRGSHHHHHHGMASMTGGQQMGRDLYDDDDKSRLQKPYITAAASVVVTPNTTLPMEWLRITLPDFMKEARNTQEAISGDDIAVVSGLFVEQNVSKEEREPLLTWNRLESLVDNAQSLVNGVDAIKEAGIVWESLVSAVEAKKLVDVNENQTRKGKEELCPQFLSKMNATEADGSSLKLQIPCGLTQGSSITVIGIPDGLVGSFRIDLTGQPLPGEPDPPIIVHYNVRLLGDKSTEDPVIVQNSWTASQDWGAEERCPKFDPDMNKKVDDLDECNKMVGGEINRTSSTSLQSNTSRGVPVAREASKHEKYFPFKQGFLSVATLRVGTEGMQMTVDGKHITSFAFRDTLEPWLVSEIRITGDFRLISILA
Output line: -0.419

Input line: # lookup: glycan array binding signal (z-score) of SynCAM (Mus musculus) (protein) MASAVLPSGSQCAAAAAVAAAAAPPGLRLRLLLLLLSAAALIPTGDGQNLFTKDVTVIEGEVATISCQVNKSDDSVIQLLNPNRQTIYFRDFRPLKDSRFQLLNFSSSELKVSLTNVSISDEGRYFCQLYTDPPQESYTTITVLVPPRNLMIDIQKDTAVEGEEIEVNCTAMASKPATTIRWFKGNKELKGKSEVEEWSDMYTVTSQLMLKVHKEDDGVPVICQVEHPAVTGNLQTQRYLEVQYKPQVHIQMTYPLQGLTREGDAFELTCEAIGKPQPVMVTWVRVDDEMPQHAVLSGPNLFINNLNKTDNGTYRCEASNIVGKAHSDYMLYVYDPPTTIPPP
Output line: 0.145

Input line: Returns the measured glycan array binding signal (z-score) for the input binder. Input: OGAN (protein) MVQKESQATLEERESELSSNPAASAGASLEPPAAPAPGEDNPAGAGGAAVAGAAGGARRFLCGVVEGFYGRPWVMEQRKELFRRLQKWELNTYLYAPKDDYKHRMFWREMYSVEEAEQLMTLISAAREYEIEFIYAISPGLDITFSNPKEVSTLKRKLDQVSQFGCRSFALLFNDIDHNMCAADKEVFSSFAHAQVSITNEIYQYLGEPETFLFCPTEYCGTFCYPNVSQSPYLRTVGEKLLPGIEVLWTGPKVVSKEIPVESIEEVSKIIKRAPVIWDNIHANDYDQKRLFLGPYKGRSTELIPRLKGVLTNPNCEFEANYVAIHTLATWYKSNMNGVRKDVVMTDSEDSTVSIQIKLENEGSDEDIETDVLYSPQMALKLALTEWLQEFGVPHQY
Output line: -0.021

Input line: Entry CD34 (Homo sapiens), P28906 (protein) MGSSHHHHHHSSGLVPRGSHMSTSLATSPTKPYTSSSPILSDIKAEIKCSGIREVKLTQGICLEQNKTSSCAEFKKDRGEGLARVLCGEEQADADAGAQVCSLLLAQSEVRPQCLLLVLANRTEISSKLQLMKKHQSDLKKLGILDFTEQDVASHQSYSQKT has what glycan array binding signal (z-score)?
Output line: -0.479

Input line: // glycan array binding signal (z-score) lookup, key: CFEM-PPm (Pichia pastoris), F2QPV1 (protein) AVATPPACLLACAAEVVKESSDCDALNNIQCICENEGSAIHACLESTCPDGLSSTALQSFEDVCE
Output line: -0.034

Input line: Quick one: glycan array binding signal (z-score) for CML1 (Coprinopsis cinerea) (protein) MAIFHTGSELFIITRGPGKLTLLTWGGLNNLRSVIGAIPTENTGVTKWAVSFSHNYTRFSFIWEGQGEACYQIGNGLTRSPVGRSWSSSSTIHWGSSTVITEDVTSVVPGAVNRDKVTTAYALPDNL ?
Output line: -0.339

Further cases:
Input line: Need glycan array binding signal (z-score) of APVPVTKLVCDGDTYKCTAYLDFGDGRWVAQWDTNVFHTG [PhoSpL (Pholiota squarrosa)] , thanks.
Output line: 0.132
